Species on record: Rattus norvegicus
experiment-description: DrugMatrix - Regimen: Daily Repeat
Type: toxicity, organism-based, Sprague-Dawley
Design: regimen Daily Repeat, gender Male, age 6-8 weeks
protocol-conditions: in vivo, po, 0 mg/kg, 72 h, tissue Blood, route oral GAVAGE, dose level Control, time 3 day, vehicle 100 % WATER

- compound: "CC[C@H]1OC(=O)[C@H](C)[C@@H](O[C@H]2C[C@@](C)(OC)[C@@H](O)[C@H](C)O2)[C@H](C)[C@@H](O[C@@H]2O[C@H](C)C[C@H](N(C)C)[C@H]2O)[C@](C)(OC)C[C@@H](C)C(=O)[C@H](C)[C@@H](O)[C@]1(C)O"
  unit-name: "%"
  EOSINOPHIL: 0.67
- compound: "CNS(=O)(=O)Cc1ccc2[nH]cc(CCN(C)C)c2c1"
  unit-name: "%"
  EOSINOPHIL: 0.67
- compound: "CN1C2CCCC1CC(NC(=O)c1nn(C)c3ccccc13)C2 (stereo not drawn)"
  unit-name: "%"
  EOSINOPHIL: 0
- compound: "Nc1ccc(S(=O)(=O)Nc2nccs2)cc1"
  unit-name: "%"
  EOSINOPHIL: 0
- compound: "O=C(O)c1cccnc1"
  unit-name: "%"
  EOSINOPHIL: 0
- compound: "Nc1ccc(S(=O)(=O)Nc2ncccn2)cc1"
  unit-name: "%"
  EOSINOPHIL: 0.5
- compound: "Cc1c(N(C)CS(=O)(=O)[O-])c(=O)n(-c2ccccc2)n1C.[Na+] [DIPYRONE SODIUM]"
  unit-name: "%"
  EOSINOPHIL: 0.17
- compound: "CCCc1nn(C)c2c(=O)[nH]c(-c3cc(S(=O)(=O)N4CCN(C)CC4)ccc3OCC)nc12"
  unit-name: "%"
  EOSINOPHIL: 0

###

Species: Rattus norvegicus
experiment-description: DrugMatrix - Regimen: Daily Repeat
Format: toxicity, organism-based, Sprague-Dawley
Design: regimen Daily Repeat, gender Male, age 6-8 weeks
protocol-conditions: in vivo, po, 1500 mg/kg, 72 h, tissue Plasma, route oral GAVAGE, dose level High, time 3 day, vehicle .5 % CMC
Please respond with Criterion met when measured ALKALINE PHOSPHATASE is strictly beneath 300 u/L, and with Criterion not met in all other cases.

- compound: "CC(C)(Sc1cc(C(C)(C)C)c(O)c(C(C)(C)C)c1)Sc1cc(C(C)(C)C)c(O)c(C(C)(C)C)c1"
  group-label: "Criterion not met"
- compound: "Nc1nc2c(c(=O)[nH]1)N(C=O)C(CNc1ccc(C(=O)N[C@@H](CCC(=O)O)C(=O)O)cc1)CN2 (stereo not given in full)"
  group-label: "Criterion not met"
- compound: "CCOC(=O)[C@H](CCc1ccccc1)N[C@@H](C)C(=O)N1CCC[C@H]1C(=O)O"
  group-label: "Criterion not met"
- compound: "O=c1cc(-c2ccccc2)oc2ccc3ccccc3c12"
  group-label: "Criterion met"
- compound: "C[C@@H](O)[C@H]1C(=O)N2C(C(=O)O)=C(S[C@@H]3CN[C@H](C(=O)N(C)C)C3)[C@H](C)[C@H]12"
  group-label: "Criterion not met"

###

Species on record: Rattus norvegicus
experiment-description: DrugMatrix - Regimen: Daily Repeat
Assay type: toxicity, organism-based, Sprague-Dawley
Set-up: regimen Daily Repeat, gender Male, age 6-8 weeks
protocol-conditions: in vivo, po, 0 mg/kg, 120 h, tissue Blood, route oral GAVAGE, dose level Control, time 5 day, vehicle .5 % CMC
Reported values of MONOCYTE for individual entries

- molecule: "C[C@@H]1CC[C@H]2[C@@H](C)C(=O)O[C@@H]3O[C@@]4(C)CC[C@@H]1[C@]32OO4"
  MONOCYTE / %: 0.83
- molecule: "CO[C@H]1C[C@@H]2CC[C@@H](C)[C@@](O)(O2)C(=O)C(=O)N2CCCC[C@H]2C(=O)O[C@H]([C@H](C)C[C@@H]2CC[C@@H](O)[C@H](OC)C2)CC(=O)[C@H](C)/C=C(\\C)[C@@H](O)[C@@H](OC)C(=O)[C@H](C)C[C@H](C)/C=C/C=C/C=C/1C"
  MONOCYTE / %: 0.67
- molecule: "CC[C@]1(O)CC[C@H]2[C@@H]3CCC4=CCCC[C@@H]4[C@H]3CC[C@@]21C"
  MONOCYTE / %: 2.2
- molecule: "CC(C(=O)O)c1ccc(-c2ccccc2)c(F)c1 (stereo unspecified)"
  MONOCYTE / %: 0.17
- molecule: "COc1ccccc1OCC(O)COC(N)=O (stereo unspecified)"
  MONOCYTE / %: 0.83
- molecule: "C=C(CC)C(=O)c1ccc(OCC(=O)O)c(Cl)c1Cl"
  MONOCYTE / %: 1.67
- molecule: "C[C@]12C/C(=C/O)C(=O)C[C@@H]1CC[C@@H]1[C@@H]2CC[C@@]2(C)[C@H]1CC[C@]2(C)O"
  MONOCYTE / %: 2.2
- molecule: "COc1ccc(/C=C/C(=O)Nc2ccccc2C(=O)O)cc1OC"
  MONOCYTE / %: 0.17
- molecule: "Nc1cccc(Cl)c1"
  MONOCYTE / %: 3.27
- molecule: "C[C@@H](O)[C@H]1C(=O)N2C(C(=O)O)=C(S[C@@H]3CN[C@H](C(=O)N(C)C)C3)[C@H](C)[C@H]12"
  MONOCYTE / %: 0.17
- molecule: "CCOC(=O)[C@H](CCc1ccccc1)N[C@@H](C)C(=O)N1Cc2ccccc2C[C@H]1C(=O)O"
  MONOCYTE / %: 1.83
- molecule: "CN1C(=O)CN=C(c2ccccc2)c2cc(Cl)ccc21"
  MONOCYTE / %: 0.17
- molecule: "CCCCC1C(=O)N(c2ccccc2)N(c2ccccc2)C1=O"
  MONOCYTE / %: 1.33
- molecule: "CC(C)(Sc1cc(C(C)(C)C)c(O)c(C(C)(C)C)c1)Sc1cc(C(C)(C)C)c(O)c(C(C)(C)C)c1"
  MONOCYTE / %: 0.17
- molecule: "CC(=O)O[C@]1(C(C)=O)CC[C@H]2[C@@H]3C=C(Cl)C4=CC(=O)[C@@H]5C[C@@H]5[C@]4(C)[C@H]3CC[C@@]21C [CYPROTERONE ACETATE]"
  MONOCYTE / %: 1.83
- molecule: "Cc1cnc(C(=O)NCCc2ccc(S(=O)(=O)NC(=O)NC3CCCCC3)cc2)cn1 [GLIPIZIDE]"
  MONOCYTE / %: 1.83

###

Species on record: Rattus norvegicus
experiment-description: DrugMatrix - Regimen: Daily Repeat
Format: toxicity, organism-based, Sprague-Dawley
Design: regimen Daily Repeat, gender Male, age 6-8 weeks
protocol-conditions: in vivo, po, 0 mg/kg, 120 h, tissue Blood, route oral GAVAGE, dose level Control, time 5 day, vehicle .5 % CMC
Below, each entry is listed with its recorded BASOPHIL.
experimental-endpoint: BASOPHIL (%)

- molecule: "Nc1cccc(Cl)c1"
  quantitative-readout: 0.48
- molecule: "CCCCC1C(=O)N(c2ccccc2)N(c2ccccc2)C1=O"
  quantitative-readout: 0
- molecule: "CO[C@H]1C[C@@H]2CC[C@@H](C)[C@@](O)(O2)C(=O)C(=O)N2CCCC[C@H]2C(=O)O[C@H]([C@H](C)C[C@@H]2CC[C@@H](O)[C@H](OC)C2)CC(=O)[C@H](C)/C=C(\\C)[C@@H](O)[C@@H](OC)C(=O)[C@H](C)C[C@H](C)/C=C/C=C/C=C/1C"
  quantitative-readout: 0
- molecule: "CC[C@]1(O)CC[C@H]2[C@@H]3CCC4=CCCC[C@@H]4[C@H]3CC[C@@]21C"
  quantitative-readout: 0.26
- molecule: "Cc1cnc(C(=O)NCCc2ccc(S(=O)(=O)NC(=O)NC3CCCCC3)cc2)cn1 [GLIPIZIDE]"
  quantitative-readout: 0
- molecule: "C[C@]12C/C(=C/O)C(=O)C[C@@H]1CC[C@@H]1[C@@H]2CC[C@@]2(C)[C@H]1CC[C@]2(C)O"
  quantitative-readout: 1.47
- molecule: "CCOC(=O)[C@H](CCc1ccccc1)N[C@@H](C)C(=O)N1Cc2ccccc2C[C@H]1C(=O)O"
  quantitative-readout: 0
- molecule: "C[C@@H](O)[C@H]1C(=O)N2C(C(=O)O)=C(S[C@@H]3CN[C@H](C(=O)N(C)C)C3)[C@H](C)[C@H]12"
  quantitative-readout: 0
- molecule: "CC(C)(Sc1cc(C(C)(C)C)c(O)c(C(C)(C)C)c1)Sc1cc(C(C)(C)C)c(O)c(C(C)(C)C)c1"
  quantitative-readout: 0
- molecule: "COc1ccc(/C=C/C(=O)Nc2ccccc2C(=O)O)cc1OC"
  quantitative-readout: 0
- molecule: "CN1C(=O)CN=C(c2ccccc2)c2cc(Cl)ccc21"
  quantitative-readout: 0
- molecule: "C=C(CC)C(=O)c1ccc(OCC(=O)O)c(Cl)c1Cl"
  quantitative-readout: 0
- molecule: "COc1ccccc1OCC(O)COC(N)=O (stereo unspecified)"
  quantitative-readout: 0
- molecule: "CC(=O)O[C@]1(C(C)=O)CC[C@H]2[C@@H]3C=C(Cl)C4=CC(=O)[C@@H]5C[C@@H]5[C@]4(C)[C@H]3CC[C@@]21C [CYPROTERONE ACETATE]"
  quantitative-readout: 0
- molecule: "C[C@@H]1CC[C@H]2[C@@H](C)C(=O)O[C@@H]3O[C@@]4(C)CC[C@@H]1[C@]32OO4"
  quantitative-readout: 0
- molecule: "CC(C(=O)O)c1ccc(-c2ccccc2)c(F)c1 (stereo unspecified)"
  quantitative-readout: 0

Each recorded value in this set is attributed to ChEMBL document CHEMBL3885881.
